system: PPARg homodimer (NR concentration 180 nM); test: PBM binding z-score (relative to random genomic background probes); higher = stronger binding; sequences stand for … in GC…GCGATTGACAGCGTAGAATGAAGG
ASSAY METRIC: PBM binding z-score

> print(dat)
                macromolecule.sequence         assay.metric  readout.number
 1  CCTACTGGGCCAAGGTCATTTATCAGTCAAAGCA  PBM binding z-score            1.83
 2  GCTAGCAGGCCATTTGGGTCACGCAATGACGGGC  PBM binding z-score          0.0821
 3  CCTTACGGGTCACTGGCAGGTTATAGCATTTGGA  PBM binding z-score            3.67
 4  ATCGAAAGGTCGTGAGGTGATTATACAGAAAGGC  PBM binding z-score            1.42
 5  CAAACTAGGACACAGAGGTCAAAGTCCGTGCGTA  PBM binding z-score            5.68
 6  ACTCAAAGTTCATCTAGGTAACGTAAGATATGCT  PBM binding z-score             3.4
 7  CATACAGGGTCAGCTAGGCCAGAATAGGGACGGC  PBM binding z-score           0.999
 8  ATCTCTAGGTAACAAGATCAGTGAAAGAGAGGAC  PBM binding z-score           0.336
 9  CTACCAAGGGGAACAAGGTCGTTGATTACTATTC  PBM binding z-score           0.795
10  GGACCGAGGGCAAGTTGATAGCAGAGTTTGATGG  PBM binding z-score           0.433
11  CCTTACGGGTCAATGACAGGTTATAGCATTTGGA  PBM binding z-score            4.22
12  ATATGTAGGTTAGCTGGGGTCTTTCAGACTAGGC  PBM binding z-score           0.937
